Reported IC50 values are given for each entry in this list.
Test system: MYB mRNA
test: Splicing RT-qPCR assay, MYB canonical (CJ) and alternative (AJ) junction mRNA
Format: cell-based, human
conditionLabel: Homo sapiens, 24 h, A673 or K562 cells, 24 hours compound treatment, RT-qPCR; read-out: MYB CJ (IC50, decrease in canonical junction mRNA)
measuredEndpoint: IC50

INSERT INTO measurements (compound, studytarget, observed) VALUES
  ('CCn1cc2c(C3OCC(N)CO3)ccc(C(=O)Nc3cc(F)c4nc(C)cn4c3)c2n1 (stereo not drawn) [Compound 455]', 'MYB mRNA', '> 10 µM'),
  ('C=Cn1cc2c(N3CCC(NCC)CC3)ccc(C(=O)Nc3cc(F)c4nc(C)cn4c3)c2n1 [Compound 503]', 'MYB mRNA', '< 0.1 µM'),
  ('Cc1cn2cc(NC(=O)c3ccc(N4CC5(CNC5)C4)c4cn(C)nc34)cc(F)c2n1 [Compound 242]', 'MYB mRNA', '< 0.1 µM'),
  ('Cc1cn2cc(NC(=O)c3ccc(N4CC[C@@H](NCC5(O)CC5)C4)c4cn(C)nc34)cc(F)c2n1 [Compound 639]', 'MYB mRNA', '0.1 to 1 µM'),
  ('Cc1cn2cc(NC(=O)c3ccc(N(C)C4CC(C)(C)NC(C)(C)C4)c4cn(C)nc34)cc(F)c2n1 [Compound 244]', 'MYB mRNA', '> 10 µM'),
  ('Cc1cn2cc(NC(=O)c3ccc(N4CCNCC4)c4cn(C5CCC5)nc34)cc(F)c2n1 [Compound 391]', 'MYB mRNA', '< 0.1 µM'),
  ('Cc1cc(NC(=O)c2ccc(N3CCNCC3)c3cn(C)nc23)cc2c1nc(C)n2C [Compound 321]', 'MYB mRNA', '> 10 µM'),
  ('Cc1cn2cc(NC(=O)c3ccc(N4CC[C@@H](NC5(C#N)CC5)C4)c4cn(C)nc34)cc(F)c2n1 [Compound 596]', 'MYB mRNA', '1 to 10 µM'),
  ('Cc1cn2cc(NC(=O)c3ccc(N4CC[C@@H](NC(C)C)C4)c4cn(C)nc34)cc(F)c2n1 [Compound 524]', 'MYB mRNA', '< 0.1 µM'),
  ('COC1CC(n2cc3c(N4CCNCC4)ccc(C(=O)Nc4cc(F)c5nc(C)cn5c4)c3n2)C1 (stereo not drawn) [Compound 424]', 'MYB mRNA', '> 10 µM'),
  ('Cc1cn2cc(NC(=O)c3ccc(N4CC[C@@H](NC5(C)CC5)C4)c4cn(C)nc34)cc(F)c2n1 [Compound 598]', 'MYB mRNA', '< 0.1 µM'),
  ('CCN1CCC(c2ccc(C(=O)Nc3cc(F)c4nc(C)cn4c3)c3oc(C)cc23)CC1 [Compound 257]', 'MYB mRNA', '0.1 to 1 µM'),
  ('Cc1cn2cc(NC(=O)c3ccc(N4CCNCC4)c4cn(CC(C)(F)F)nc34)cc(F)c2n1 [Compound 364]', 'MYB mRNA', '1 to 10 µM'),
  ('Cc1cn2cc(NC(=O)c3ccc(N4CCNC(C)(C)C4)c4cc(C)oc34)cc(F)c2n1 [Compound 193]', 'MYB mRNA', '0.1 to 1 µM'),
  ('Cc1cn2cc(NC(=O)c3ccc(N4CCNCC4)c4cn(CC#N)nc34)cc(F)c2n1 [Compound 413]', 'MYB mRNA', '< 0.1 µM'),
  ('Cc1cn2cc(NC(=O)c3cc(Cl)c(N4CCNCC4)c4cn(C)nc34)cc(F)c2n1 [Compound 528]', 'MYB mRNA', '0.1 to 1 µM'),
  ('Cc1cn2cc(NC(=O)c3ccc(N4CCNC[C@H]4C)c4cn(C)nc34)cc(F)c2n1 [Compound 447]', 'MYB mRNA', '< 0.1 µM'),
  ('CCn1cc2c(N3CC4(CCNCC4)C3)ccc(C(=O)Nc3cc(F)c4nc(C)cn4c3)c2n1 [Compound 492]', 'MYB mRNA', '0.1 to 1 µM'),
  ('Cc1cn2cc(NC(=O)c3ccc(N4CC[C@H](NC5CC(O)C5)C4)c4cn(C)nc34)cc(F)c2n1 (stereo partly drawn) [Compound 603]', 'MYB mRNA', '1 to 10 µM'),
  ('Cc1cn2cc(NC(=O)c3ccc(N4CCNCC4)c4cn(C)nc34)nc(C)c2n1 [Compound 293]', 'MYB mRNA', '< 0.1 µM'),
  ('Cc1cn2cc(NC(=O)c3c(F)cc(N4CCC(N(C)C)C4)c4cn(C)nc34)cc(F)c2n1 (stereo in doubt) [Compound 463]', 'MYB mRNA', '< 0.1 µM'),
  ('Cc1cn2cc(NC(=O)c3ccc(N4CCN[C@@H](C5CC5)C4)c4cn(C)nc34)cc(F)c2n1 [Compound 606]', 'MYB mRNA', '0.1 to 1 µM'),
  ('CCn1cc2c(N3CCNCC3)ccc(C(=O)Nc3cc(F)c4nc(C)c(F)n4c3)c2n1 [Compound 565]', 'MYB mRNA', '> 10 µM'),
  ('CCn1cc2c(N3CCN[C@H](CO)C3)ccc(C(=O)Nc3cc(F)c4nc(C)cn4c3)c2n1 [Compound 430]', 'MYB mRNA', '< 0.1 µM'),
  ('CCn1cc2c(N3CCC(NC4CC4)C3)ccc(C(=O)Nc3cc(F)c4nc(C)cn4c3)c2n1 (stereo not drawn) [Compound 398]', 'MYB mRNA', '0.1 to 1 µM'),
  ('CCn1cc2c(C3=CCNCC3)ccc(C(=O)Nc3cc(F)c4nc(C)cn4c3)c2n1 [Compound 506]', 'MYB mRNA', '0.1 to 1 µM'),
  ('Cc1cn2cc(NC(=O)c3ccc(N4CCNCC4)c4cn(CC(F)(F)F)nc34)cc(F)c2n1 [Compound 316]', 'MYB mRNA', '1 to 10 µM'),
  ('CCn1cc2c(N3CCN4CCOC[C@H]4C3)ccc(C(=O)Nc3cc(F)c4nc(C)cn4c3)c2n1 [Compound 537]', 'MYB mRNA', '1 to 10 µM'),
  ('Cc1cn2cc(NC(=O)c3ccc(N4CC[C@H](N(C)C)C4)c4cn(C)nc34)cc(F)c2n1 (single isomer, unassigned) [Compound 351]', 'MYB mRNA', '< 0.1 µM'),
  ('Cc1cn2cc(NC(=O)c3ccc(N4CCNCC4)c4nnn(C)c34)cc(F)c2n1 [Compound 435]', 'MYB mRNA', '> 10 µM');

---

Reported AC50 values are given for each entry in this list.
Tested on: HTT mRNA
test: Splicing RT-qPCR assay, HTT canonical (CJ) and alternative (AJ) junction mRNA
Type: cell-based, human
conditionLabel: Homo sapiens, A673 or K562 cells, 24 hours compound treatment, read-out: HTT AJ (AC50, increase in alternative junction mRNA)
measuredEndpoint: AC50

INSERT INTO measurements (molsmiles, studytarget, measuredendpoint, observed) VALUES
  ('Cc1cn2nc(NC(=O)c3ccc(N4CCNCC4)c4cc(C)oc34)cc(C)c2n1', 'HTT mRNA', 'AC50', '1 to 10 µM'),
  ('CCN(c1ccc(C(=O)Nc2cc(F)c3nc(C)cn3c2)c2nn(C)cc12)C1CCNCC1', 'HTT mRNA', 'AC50', '> 10 µM'),
  ('Cc1cn2cc(NC(=O)c3ccc(N4CCNCC4)c4cn(Cc5cn(C)nn5)nc34)cc(F)c2n1', 'HTT mRNA', 'AC50', '> 10 µM'),
  ('CNC1CCN(c2ccc(C(=O)Nc3cc(F)c4nc(C)cn4c3)c3nn(C)cc23)CC1', 'HTT mRNA', 'AC50', '1 to 10 µM'),
  ('Cc1cn2nc(-c3ccc(C(=O)NC4CCNCC4)c4oc(C)cc34)cc(F)c2n1', 'HTT mRNA', 'AC50', '> 10 µM'),
  ('Cc1cn2cc(NC(=O)c3ccc(N4CCC(NC(C)(C)C)CC4)c4cc(C)oc34)cc(F)c2n1', 'HTT mRNA', 'AC50', '> 10 µM'),
  ('Cc1cc2c(N3CCNCC3)ccc(C(=O)Nc3cc(F)c4nc(C)sc4c3)c2o1', 'HTT mRNA', 'AC50', '> 10 µM'),
  ('Cc1cn2cc(NC(=O)c3ccc(N4CCNCC4)c4cc(C)oc34)ncc2n1', 'HTT mRNA', 'AC50', '1 to 10 µM');

---

Reported AC50 values are given for each entry in this list.
Test system: HTT mRNA
test: Splicing RT-qPCR assay, HTT canonical (CJ) and alternative (AJ) junction mRNA
Format: cell-based, human
conditionLabel: Homo sapiens, A673 or K562 cells, 24 hours compound treatment, read-out: HTT AJ (AC50, increase in alternative junction mRNA)
measuredEndpoint: AC50

INSERT INTO measurements (compound, observed) VALUES
  ('Cc1cn2cc(NC(=O)c3ccc(N4CC5(CN(C)C5)C4)c4cc(C)oc34)cc(F)c2n1', '1 to 10 µM'),
  ('Cc1cn2cc(NC(=O)c3ccc(N4CCC(N5C6COCC65)C4)c4cn(C)nc34)cc(F)c2n1 (stereo not shown)', '1 to 10 µM'),
  ('Cc1cn2cc(NC(=O)c3ccc(N4CCNCC4)c4cn(C5CCC5)nc34)cc(F)c2n1', '1 to 10 µM'),
  ('COc1c(NC(=O)c2ccc(N3CCNCC3)c3cn(C)nc23)cc2cn(C)nc2c1C', '> 10 µM');
